method summary: Mean residence time in Crl:CD(SD) rat at 10 mg/kg, po administered with solubilized reagent
Format: ADME, organism-based
Set-up: dose 10 mg/kg, route oral
study conditions: in vivo

molecule: CC1(C)C[C@@H](c2ccccc2)Nc2c(C(=O)NC34CC5CC(CC(C5)C3)C4)cnn21
MRT (h): 4.48

* * *

experimental system: Extracellular calcium-sensing receptor (Homo sapiens, UniProt P41180)
Sequence (P41180 whole entry): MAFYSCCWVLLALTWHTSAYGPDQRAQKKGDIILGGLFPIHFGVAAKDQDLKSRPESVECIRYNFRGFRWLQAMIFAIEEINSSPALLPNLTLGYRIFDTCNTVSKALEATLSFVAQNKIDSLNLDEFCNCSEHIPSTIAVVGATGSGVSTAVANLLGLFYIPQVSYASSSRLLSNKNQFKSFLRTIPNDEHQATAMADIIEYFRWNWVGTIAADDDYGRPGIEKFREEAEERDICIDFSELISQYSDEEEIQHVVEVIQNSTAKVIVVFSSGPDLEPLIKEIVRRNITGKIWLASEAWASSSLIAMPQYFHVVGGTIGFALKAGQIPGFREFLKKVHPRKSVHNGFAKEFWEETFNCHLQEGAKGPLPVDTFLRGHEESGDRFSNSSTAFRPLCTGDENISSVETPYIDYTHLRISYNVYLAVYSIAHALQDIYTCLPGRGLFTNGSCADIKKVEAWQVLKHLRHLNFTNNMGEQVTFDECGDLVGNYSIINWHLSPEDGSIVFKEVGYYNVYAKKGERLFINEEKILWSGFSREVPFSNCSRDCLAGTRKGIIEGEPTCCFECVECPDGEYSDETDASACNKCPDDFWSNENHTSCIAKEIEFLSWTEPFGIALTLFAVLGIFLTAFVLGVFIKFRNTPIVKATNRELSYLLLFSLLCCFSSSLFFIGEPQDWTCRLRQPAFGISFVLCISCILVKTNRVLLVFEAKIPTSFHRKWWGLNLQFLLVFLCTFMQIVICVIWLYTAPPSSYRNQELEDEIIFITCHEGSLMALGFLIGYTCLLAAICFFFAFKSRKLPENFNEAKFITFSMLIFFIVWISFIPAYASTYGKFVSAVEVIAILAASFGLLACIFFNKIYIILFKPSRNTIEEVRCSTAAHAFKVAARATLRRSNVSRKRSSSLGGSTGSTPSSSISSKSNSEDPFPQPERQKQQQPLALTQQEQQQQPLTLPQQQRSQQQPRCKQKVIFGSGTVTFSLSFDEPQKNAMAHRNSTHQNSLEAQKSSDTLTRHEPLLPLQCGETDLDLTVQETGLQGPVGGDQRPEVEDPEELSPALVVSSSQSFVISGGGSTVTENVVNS
method summary: Antagonist activity at CaSR expressed in CHO cells assessed as [35S]-GTPgammaS binding by scintillation counting
Consider the cut-off 0.1 µM. If the recorded IC50 is strictly smaller, the label is yes (1); if not, the label is no (0).

molecule: O=C(NC12CC3CC(CC(C3)C1)C2)c1cnn2c1N[C@H](c1ccc(Cl)cc1)C[C@@H]2C(F)(F)F
assigned class: no (0)
--
molecule: O=C(NC12CC3CC(CC(C3)C1)C2)c1cnn2c1N[C@H](c1ccccc1)CC2
assigned class: no (0)
--
molecule: FC(F)(F)[C@H]1C[C@@H](c2ccccc2)Nc2c(CNC34CC5CC(CC(C5)C3)C4)cnn21
assigned class: no (0)
--
molecule: O=C(Nc1cnn2c1N[C@H](c1ccccc1)C[C@@H]2C(F)(F)F)C12CC3CC(CC(C3)C1)C2
assigned class: no (0)
--
molecule: O=C(OC12CC3CC(CC(C3)C1)C2)c1cnn2c1N[C@H](c1ccccc1)C[C@@H]2C(F)(F)F
assigned class: yes (1)
--
molecule: O=C(NC12CC3CC(CC(C3)C1)C2)c1cnn2c1N[C@H](c1ccco1)C[C@@H]2C(F)(F)F
assigned class: no (0)
--
molecule: CCc1ccc([C@@H]2C[C@H](C(F)(F)F)n3ncc(C(=O)NC45CC6CC(CC(C6)C4)C5)c3N2)cc1
assigned class: no (0)
--
molecule: CC(C)(C)[C@@H]1C[C@H](C(F)(F)F)n2ncc(C(=O)NC34CC5CC(CC(C5)C3)C4)c2N1
assigned class: no (0)
--
molecule: O=C(NC12CC3CC(CC(C3)C1)C2)c1cnn2c(C(F)(F)F)cc(-c3ccccc3)nc12
assigned class: no (0)
--
molecule: C[C@@H]1C[C@H](c2ccccc2)n2ncc(C(=O)NC34CC5CC(CC(C5)C3)C4)c2N1
assigned class: no (0)
--
molecule: COc1ccc([C@@H]2C[C@H](C(F)(F)F)n3ncc(C(=O)NC45CC6CC(CC(C6)C4)C5)c3N2)cc1
assigned class: no (0)
--
molecule: O=C(NC12CC3CC(CC(C3)C1)C2)c1cnn2c1NCC[C@@H]2C(F)(F)F
assigned class: no (0)
--
molecule: O=C(NC12CC3CC(CC(C3)C1)C2)c1cnn2c1N[C@H](c1ccccc1)C[C@@H]2C(F)(F)F
assigned class: yes (1)
--
molecule: O=C(NC12CC3CC(CC(C3)C1)C2)c1cnn2c1N[C@H](c1ccccc1)C[C@@H]2c1ccccc1
assigned class: no (0)
--
molecule: CC1(C)C[C@@H](c2ccccc2)Nc2c(C(=O)NC34CC5CC(CC(C5)C3)C4)cnn21
assigned class: yes (1)
--
molecule: CC1(C)C=C(c2ccccc2)Nc2c(C(=O)NC34CC5CC(CC(C5)C3)C4)cnn21
assigned class: no (0)
--
molecule: CN1c2c(C(=O)NC34CC5CC(CC(C5)C3)C4)cnn2[C@@H](C(F)(F)F)C[C@H]1c1ccccc1
assigned class: no (0)
